These data points were gathered from patent US9421204B2.

method: Caco-2 permeability characterization (plate certification)
testConditions: human, Caco-2, (A-to-B) Papp, Test 2, Passage Number 67
measureName: Papp A→B (×10⁻⁶ cm/s)

* C[C@H]1O[C@@H](O[C@H]2[C@@H](O)C[C@H](O[C@H]3[C@@H](O)C[C@H](O[C@H]4CC[C@@]5(C)[C@H](CC[C@@H]6[C@@H]5C[C@@H](O)[C@]5(C)[C@@H](C7=CC(=O)OC7)CC[C@]65O)C4)O[C@@H]3C)O[C@@H]2C)C[C@H](O)[C@@H]1O | 0.75

====

method: in vitro
Type: in vitro ADME
testConditions: human, Caco-2, pH 7.4, Test 2, 10 μM, 2 hours; read-out: Recovery (%) B→A
The compounds listed here are annotated with their recovery at 2 h, 10 μM.
measureName: recovery at 2 h, 10 μM (%)

• COCCOCCOCCOCCOCCOc1ccc2[nH]c(C(=O)N3CCN(c4ncccc4NC(C)C)CC3)cc2c1 = 95
• COCCOCCNc1ccc2[nH]c(C(=O)N3CCN(c4ncccc4NC(C)C)CC3)cc2c1 = 88
• COCCOCCOCCNc1ccc2[nH]c(C(=O)N3CCN(c4ncccc4NC(C)C)CC3)cc2c1 = 96
• COCCNc1ccc2[nH]c(C(=O)N3CCN(c4ncccc4NC(C)C)CC3)cc2c1 = 92
• COCCOCCOCCOc1ccc2[nH]c(C(=O)N3CCN(c4ncccc4NC(C)C)CC3)cc2c1 = 101
• COCCOCCOCCOCCOCCOCCOCCOc1ccc2[nH]c(C(=O)N3CCN(c4ncccc4NC(C)C)CC3)cc2c1 = 95

====

method: Caco-2 permeability characterization (plate certification)
testConditions: human, Caco-2, (A-to-B) Papp, Test 2, Passage Number 59
measureName: Papp A→B

- C[C@H]1O[C@@H](O[C@H]2[C@@H](O)C[C@H](O[C@H]3[C@@H](O)C[C@H](O[C@H]4CC[C@@]5(C)[C@H](CC[C@@H]6[C@@H]5C[C@@H](O)[C@]5(C)[C@@H](C7=CC(=O)OC7)CC[C@]65O)C4)O[C@@H]3C)O[C@@H]2C)C[C@H](O)[C@@H]1O: 6.5 nm/s

====

method: Log P determination (Sirius GLpKa)
Format: physicochemical
Structures can show the parent of a compound that is named as a salt.
measureName: logP

* CC(C)Nc1cccnc1N1CCN(C(=O)c2cc3cc(NS(C)(=O)=O)ccc3[nH]2)CC1 [Delavirdine Mesylate, reference compound] | 3.5

====

System: HIV-1RF
method: Anti-HIV-1 cytoprotection assay in CEM-SS cells
Type: cell-based
testConditions: Human immunodeficiency virus 1, CEM-SS, RF strain of HIV-1 in CEM-SS cells, control compound; read-out: EC50
measureName: EC50 (nM)

* Cc1cn([C@H]2C[C@H](N=[N+]=[N-])[C@@H](CO)O2)c(=O)[nH]c1=O [AZT, reference compound] | 6

====

method: in vitro
Type: in vitro ADME
testConditions: human, Caco-2, pH 7.4, Test 2, 10 μM, 2 hours; read-out: Recovery (%) A→B
measureName: recovery at 2 h, 10 μM (%)

- COCCOCCOCCOc1ccc2[nH]c(C(=O)N3CCN(c4ncccc4NC(C)C)CC3)cc2c1: 95
- COCCOCCOCCOCCOCCOc1ccc2[nH]c(C(=O)N3CCN(c4ncccc4NC(C)C)CC3)cc2c1: 97
- COCCOCCOCCNc1ccc2[nH]c(C(=O)N3CCN(c4ncccc4NC(C)C)CC3)cc2c1: 94
- COCCOCCNc1ccc2[nH]c(C(=O)N3CCN(c4ncccc4NC(C)C)CC3)cc2c1: 88
- COCCNc1ccc2[nH]c(C(=O)N3CCN(c4ncccc4NC(C)C)CC3)cc2c1: 91
- COCCOCCOCCOCCOCCOCCOCCOc1ccc2[nH]c(C(=O)N3CCN(c4ncccc4NC(C)C)CC3)cc2c1: 94

====

method: in vitro
Format: in vitro ADME
testConditions: human, Caco-2, pH 7.4, Test 1, 10 μM, 2 hours; read-out: Recovery (%) A→B
Method: Each determination was performed in duplicate. Vr is the volume of the receiver compartment in cm^3. Vd is the volume of the donor compartment in cm^3. A is the area of the cell monolayer (1.13 cm^2 for 12-well Transwell®). CN is the nominal dosing concentration of the dosing solution in μM. CA is the average of the nominal dosing concentration and the measured 120 minute donor concentration in μM. Cr^final is the receiver concentration in μM at the end of the incubation period. […]
measureName: recovery at 2 h, 10 μM (%)

• COCCOCCOCCOCCOCCOCCOCCOc1ccc2[nH]c(C(=O)N3CCN(c4ncccc4NC(C)C)CC3)cc2c1 = 74
• COCCOCCOCCOCCOCCOCCOc1ccc2[nH]c(C(=O)N3CCN(c4ncccc4NC(C)C)CC3)cc2c1 = 67
• COCCOCCOCCOCCOCCOCCOCCOCCOc1ccc2[nH]c(C(=O)N3CCN(c4ncccc4NC(C)C)CC3)cc2c1 = 80
• COCCOCCOCCOCCOCCOc1ccc2[nH]c(C(=O)N3CCN(c4ncccc4NC(C)C)CC3)cc2c1 = 71

====

The compounds listed here are annotated with their Papp A→B at 2 hours, 10 μM.
method: in vitro
Type: in vitro ADME
testConditions: human, Caco-2, pH 7.4, Test 2, 10 μM, 2 hours, pH 7.4; read-out: Average Papp, A→B
measureName: Papp A→B at 2 hours, 10 μM (×10⁻⁶ cm/s)

- COCCOCCOCCOCCOCCOc1ccc2[nH]c(C(=O)N3CCN(c4ncccc4NC(C)C)CC3)cc2c1: 33.3
- COCCOCCNc1ccc2[nH]c(C(=O)N3CCN(c4ncccc4NC(C)C)CC3)cc2c1: 46.2
- COCCNc1ccc2[nH]c(C(=O)N3CCN(c4ncccc4NC(C)C)CC3)cc2c1: 50.2
- COCCOCCOCCOCCOCCOCCOCCOc1ccc2[nH]c(C(=O)N3CCN(c4ncccc4NC(C)C)CC3)cc2c1: 23.1
